- TARGET DESC: T1, recombinant human DR3-human IgG1-Fc (soluble human DR3(EC)-hG1Fc) (human)
- T1 construct: also called huDR3-huFc; hDR3(EC)-hG1Fc
- T1 sequence (chain, as listed by the source limits assumed): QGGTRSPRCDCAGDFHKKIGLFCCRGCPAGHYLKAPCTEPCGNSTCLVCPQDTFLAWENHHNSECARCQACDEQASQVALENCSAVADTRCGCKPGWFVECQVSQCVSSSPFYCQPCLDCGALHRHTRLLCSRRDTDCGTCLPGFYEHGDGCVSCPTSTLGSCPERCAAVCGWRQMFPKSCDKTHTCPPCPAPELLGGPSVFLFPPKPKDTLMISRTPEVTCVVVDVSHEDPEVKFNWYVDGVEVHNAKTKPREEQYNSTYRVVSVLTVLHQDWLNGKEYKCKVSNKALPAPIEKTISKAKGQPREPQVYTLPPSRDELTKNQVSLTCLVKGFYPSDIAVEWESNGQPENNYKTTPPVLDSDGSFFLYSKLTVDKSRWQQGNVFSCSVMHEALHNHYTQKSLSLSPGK
- EXPERIMENT NOTES: SPR, Fab on immobilised DR3-Fc, same as Example 5; n = 3
- Protocol: Fab antibody fragments of the above mentioned antibodies were obtained following the Pierce Fab Preparation Kit (Thermo Scientific Pierce No. 44985). […] In particular, the kinetic assay was carried out by immobilizing on the chip approximately 2000 resonance unit (RU) of recombinant protein, in order to achieve a medium protein immobilization level. […] The dissociation time was 300 seconds and the binding curves were measured at 25° C. […]
pKd: −log10 of the molar value.
Mark False for pKd values under 9, and True for everything at or above.

API: above_or_equal(metric=pKd, cutoff=9) for item 142A2-G112R Fab (Fab, V domains shown, Only the variable domains are written) VH: QVQLQQSGPGLVKPSQTLSLTCAISGDSVSGYSAAWNWIRQSPSRGLEWLGRTYYRSKWYNDYAVSVKSRITINPDTSKNQFSLQLNSVTPEDTAVYYCARDYYGSESYYNRGYYYYGMDVWGQGTTVTVSS VL: AIQLTQSPSSLSASVGDRVTITCRASPGISSALAWYQQKPGKAPKLLMYDASSLESGVPSRFSGSGSGTDFTLTISSLQPEDFATYYCQQFNDYPLTFGGGTKVEIK
False

Tell me whether pKd is at least 9 here: 142A2-G112R/L54Q Fab (Fab, V domains shown, Only the variable domains are written) VH: QVQLQQSGPGLVKPSQTLSLTCAISGDSVSGYSAAWNWIRQSPSRGLEWLGRTYYRSKWYNDYAVSVKSRITINPDTSKNQFSLQLNSVTPEDTAVYYCARDYYGSESYYNRGYYYYGMDVWGQGTTVTVSS VL: AIQLTQSPSSLSASVGDRVTITCRASPGISSALAWYQQKPGKAPKLLMYDASSQESGVPSRFSGSGSGTDFTLTISSLQPEDFATYYCQQFNDYPLTFGGGTKVEIK
False

Decide: is the reported value of pKd for 142A2-L54Q Fab (Fab, V domains shown, Only the variable domains are written; also called A2-Q) VH: QVQLQQSGPGLVKPSQTLSLTCAISGDSVSGYSAAWNWIRQSPSRGLEWLGRTYYRSKWYNDYAVSVKSRITINPDTSKNQFSLQLNSVTPEDTAVYYCARDYYGSESYYNGGYYYYGMDVWGQGTTVTVSS VL: AIQLTQSPSSLSASVGDRVTITCRASPGISSALAWYQQKPGKAPKLLMYDASSQESGVPSRFSGSGSGTDFTLTISSLQPEDFATYYCQQFNDYPLTFGGGTKVEIK equal to or greater than 9?
False

Test whether the binder anti-DR3 monoclonal antibody 142S38B Fab fragment (Fab, V domains shown, Fab made with the Pierce Fab Preparation Kit from antibody 142S38B; Human kappa light chain; Only the variable domains are written) VH: EVQLLESGGGLVQPGGSLRLSCAASGFTVSRYAMSWVRQAPGKGLEWVSAISDSGGRTYYADSVMGRFTISRDTSKNTLYLQMNSLRAEDTAVYFCAKEFGDYLDYWGQGTLVTVSS VL: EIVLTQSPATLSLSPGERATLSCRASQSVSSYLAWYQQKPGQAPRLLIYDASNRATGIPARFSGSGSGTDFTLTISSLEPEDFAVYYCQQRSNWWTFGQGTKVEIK records pKd of 9 or higher.
True
